- Test system: KRAS patient-derived spheroids with HUVEC/MSC, viability
- assayOverview: Anticancer human tumor 941728-121-R-J1-PDC patient-derived lung adenocarcinoma cell line growth inhibition [KRAS2]; active means viability on the fitted dose curve at most 10% of control; inactive means the rest
- conditionDescription: second compound 10 µM; first compound 1 µM
Write down one outcome, taken from 1 (yes) (active), 0 (no) (inactive)

# count of solved cases: 3
CCNC(=O)CC1N=C(c2ccc(Cl)cc2)c2cc(OC)ccc2-n2c(C)nnc21 (stereo not given) + CC1OCC2(CCN(c3cnc(Sc4ccnc(N)c4Cl)c(N)n3)CC2)C1N | 1 (yes)
COc1cc(Nc2ncc3c(n2)-c2ccc(Cl)cc2C(c2c(F)cccc2OC)=NC3)ccc1C(=O)O + CC1OCC2(CCN(c3cnc(Sc4ccnc(N)c4Cl)c(N)n3)CC2)C1N | 0 (no)
CC1(C)CCC(CN2CCN(c3ccc(C(=O)NS(=O)(=O)c4ccc(NCC5CCOCC5)c([N+](=O)[O-])c4)c(Oc4cnc5[nH]ccc5c4)c3)CC2)=C(c2ccc(Cl)cc2)C1 + CC1OCC2(CCN(c3cnc(Sc4ccnc(N)c4Cl)c(N)n3)CC2)C1N | 0 (no)

[ask] Hi team, can someone confirm the assay call for O=C(c1cc(Cc2n[nH]c(=O)c3ccccc23)ccc1F)N1CCN(C(=O)C2CC2)CC1 + C=CC(=O)N1CCN(c2nc(=O)n(-c3c(C)ccnc3C(C)C)c3nc(-c4c(O)cccc4F)c(F)cc23)C(C)C1 ?
[reply] 0 (no)

[ask] // query: Cn1nccc1Nc1nccc(-c2cc3c(s2)C(C)(C)N(CCN2CCOCC2)C3=O)n1 + CC1OCC2(CCN(c3cnc(Sc4ccnc(N)c4Cl)c(N)n3)CC2)C1N
[reply] 0 (no)

====

- Test system: KRAS patient-derived spheroids with HUVEC/MSC, viability
- assayOverview: Anticancer human tumor 941728-121-R-J1-PDC cell line growth inhibition [KRAS2];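 further: spheroids exposed to agents for seven days before readout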
- conditionDescription: second compound 0.1 µM; first compound 0.1 µM; stronger effect = lower value
Labelling field: enter fulfilled if recorded viability, T/C is less than 30%. Enter not fulfilled if it equals or exceeds that cut-off.

Cn1nccc1Nc1nccc(-c2cc3c(s2)C(C)(C)N(CCN2CCOCC2)C3=O)n1 + COc1cc2nc(C)nc(NC(C)c3cc(N)cc(C(F)(F)F)c3)c2cc1OC1CCOC1 | not fulfilled

[ask] Regarding CCNC(=O)CC1N=C(c2ccc(Cl)cc2)c2cc(OC)ccc2-n2c(C)nnc21 (stereo not given) + C=CC(=O)N1CCN(c2nc(OCC3CCCN3C)nc3c2CCN(c2cccc4cccc(C)c24)C3)CC1CC#N , kindly confirm whether its viability, T/C is beneath 30%.
[reply] fulfilled

[ask] // query: COc1cc(Nc2ncc3c(n2)-c2ccc(Cl)cc2C(c2c(F)cccc2OC)=NC3)ccc1C(=O)O + CC1OCC2(CCN(c3cnc(Sc4ccnc(N)c4Cl)c(N)n3)CC2)C1N
[reply] not fulfilled

[ask] // query: CCN1CCN(Cc2ccc(Nc3ncc(F)c(-c4cc(F)c5nc(C)n(C(C)C)c5c4)n3)nc2)CC1 + C=CC(=O)N1CCN(c2nc(=O)n(-c3c(C)ccnc3C(C)C)c3nc(-c4c(O)cccc4F)c(F)cc23)C(C)C1
[reply] fulfilled

====

- System: KRAS patient-derived spheroids with HUVEC/MSC, viability
- assayOverview: Anticancer human tumor 941728-121-R-J1-PDC cell line growth inhibition [KRAS2]; active means viability on the fitted dose curve at most 10% of control; inactive means the rest;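 further: spheroids exposed to agents for seven days before readout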
- conditionDescription: second compound 10 µM; first compound 0.1 µM
Write down one outcome, taken from active, inactive

# count of solved cases: 2
COC(=O)c1ccc2c(C(=Nc3ccc(N(C)C(=O)CN4CCN(C)CC4)cc3)c3ccccc3)c(O)[nH]c2c1 + CC1OCC2(CCN(c3cnc(Sc4ccnc(N)c4Cl)c(N)n3)CC2)C1N | inactive
CC1(C)CCC(CN2CCN(c3ccc(C(=O)NS(=O)(=O)c4ccc(NCC5CCOCC5)c([N+](=O)[O-])c4)c(Oc4cnc5[nH]ccc5c4)c3)CC2)=C(c2ccc(Cl)cc2)C1 + C=CC(=O)N1CCN(c2nc(=O)n(-c3c(C)ccnc3C(C)C)c3nc(-c4c(O)cccc4F)c(F)cc23)C(C)C1 | inactive

[ask] Hi team, can someone confirm the assay call for CC(C)n1nc(-c2ccc3oc(N)nc3c2)c2c(N)ncnc21 + CC1OCC2(CCN(c3cnc(Sc4ccnc(N)c4Cl)c(N)n3)CC2)C1N ?
[reply] active
